Assay Target: human NOX5 (hNOX5) (Homo sapiens)
Sequence (Q96PH1 whole entry): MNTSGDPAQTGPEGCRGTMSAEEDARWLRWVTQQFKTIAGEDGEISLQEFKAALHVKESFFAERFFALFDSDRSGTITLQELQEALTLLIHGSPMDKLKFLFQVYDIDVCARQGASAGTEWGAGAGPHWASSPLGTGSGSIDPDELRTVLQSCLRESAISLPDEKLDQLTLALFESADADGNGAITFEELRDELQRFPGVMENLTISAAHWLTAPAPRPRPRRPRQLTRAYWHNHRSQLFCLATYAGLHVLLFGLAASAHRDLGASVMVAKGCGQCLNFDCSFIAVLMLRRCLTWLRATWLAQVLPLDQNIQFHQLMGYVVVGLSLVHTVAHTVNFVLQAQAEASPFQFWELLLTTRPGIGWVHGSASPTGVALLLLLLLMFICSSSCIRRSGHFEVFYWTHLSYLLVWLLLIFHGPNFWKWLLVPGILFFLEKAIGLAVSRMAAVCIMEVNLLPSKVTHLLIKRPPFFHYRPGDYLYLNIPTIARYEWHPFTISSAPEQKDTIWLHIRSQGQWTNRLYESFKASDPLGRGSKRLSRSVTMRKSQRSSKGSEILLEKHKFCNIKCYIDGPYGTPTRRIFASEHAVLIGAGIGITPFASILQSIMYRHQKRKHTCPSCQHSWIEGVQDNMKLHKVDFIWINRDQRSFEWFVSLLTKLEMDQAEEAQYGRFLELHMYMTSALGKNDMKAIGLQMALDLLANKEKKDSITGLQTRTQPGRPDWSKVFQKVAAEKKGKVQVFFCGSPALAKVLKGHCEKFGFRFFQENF
Experimental Details: NOX5 inhibition assay (L-012), HEK293 cells stably overexpressing human NOX5
Test Context: HEK293-hNOX5, PMA stimulated
Experimental: The synthetic gene hNOX5 (Accession: Q96PH1) is cloned into pcDNA3.1_Zeo. […] The final construct is verified by sequencing. Evaluation of the NOX4 inhibitors on NOX5 activity is assessed in HEK293 cells stably overexpressing human NOX5 (hNOX5). Cells are seeded in 384 well plates over-night. […] Cells are then stimulated with PMA at 0.1 μM to induce NOX5-dependent ROS production. […] Luminescence is measured with an PHERAstar multimode reader.
Readout Name: IC50 (µM)

# Chemical Smiles, IC50 [µM]
data = [
    ("O=c1c2scnc2nc(SCc2ccc(C(F)(F)F)cc2F)n1-c1ccc(O)nc1", 57.4),
]

a = O=c1c2scnc2nc(SCc2ccc(C(F)(F)F)cc2)n1-c1ccc(O)nc1
b = O=c1c2scnc2nc(SCc2c(F)cc(F)cc2F)n1-c1cc(F)c(O)cc1F
Of the two listed items, which has the higher IC50? First: a Second: b Record your answer as the label of the chosen record.
a

###

Assay Target: NOX2 (Homo sapiens)
Construct: endogenous in cells
Sequence (P04839 2-570 limits assumed): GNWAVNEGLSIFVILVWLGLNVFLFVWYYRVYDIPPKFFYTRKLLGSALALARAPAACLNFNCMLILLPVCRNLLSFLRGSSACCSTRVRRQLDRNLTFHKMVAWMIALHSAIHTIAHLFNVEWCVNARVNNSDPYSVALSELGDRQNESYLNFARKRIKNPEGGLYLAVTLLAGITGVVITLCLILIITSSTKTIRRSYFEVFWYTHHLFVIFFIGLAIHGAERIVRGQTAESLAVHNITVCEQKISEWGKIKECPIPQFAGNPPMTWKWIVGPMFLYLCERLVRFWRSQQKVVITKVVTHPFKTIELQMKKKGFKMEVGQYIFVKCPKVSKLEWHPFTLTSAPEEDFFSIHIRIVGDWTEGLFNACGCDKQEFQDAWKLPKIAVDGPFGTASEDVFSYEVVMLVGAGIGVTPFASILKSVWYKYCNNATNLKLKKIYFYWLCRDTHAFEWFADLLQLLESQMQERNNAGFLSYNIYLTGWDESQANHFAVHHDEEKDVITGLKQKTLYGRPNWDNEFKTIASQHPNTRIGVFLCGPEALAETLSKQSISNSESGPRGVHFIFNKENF
Sequence (P13498 2-195 partner limits assumed): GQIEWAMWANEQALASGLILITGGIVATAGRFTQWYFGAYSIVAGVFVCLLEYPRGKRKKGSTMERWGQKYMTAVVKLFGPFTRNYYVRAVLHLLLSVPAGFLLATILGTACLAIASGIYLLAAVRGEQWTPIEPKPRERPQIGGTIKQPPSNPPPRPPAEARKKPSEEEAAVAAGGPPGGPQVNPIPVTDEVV
Experimental Details: NOX2 inhibition assay (L-012), human blood-derived granulocytes
Test Context: fMLP/PMA stimulated
pIC50: −log10 of the molar value.
// reported pIC50 per item

Worked cases, pIC50 given:
# Compound, pIC50
rows = [
    ("O=c1c2scnc2nc(SCc2ccc(C(F)(F)F)cc2Cl)n1-c1cnc(O)c(F)c1 [Example 46]", "< 4.00"),
    ("O=c1c2scnc2nc(SCc2c(F)cc(F)cc2F)n1-c1ccc(O)nn1 [Example 67]", "< 4.52"),
]

Could you please provide reported pIC50 for Cc1cc(F)ccc1CSc1nc2ncsc2c(=O)n1-c1ccc(O)nn1 [Example 68] ? Thanks!
< 4.00

Tell me pIC50 reported for Cc1cc(F)ccc1CSc1nc2ncsc2c(=O)n1-c1ccc(O)nc1 [Example 29]
4.43

For the compound O=c1c2scnc2nc(SCc2ccc(C(F)(F)F)cc2)n1-c1cc(F)c(O)c(F)c1 [Example 7] , give its reported pIC50.
< 4.00

Give pIC50 for O=c1c2scnc2nc(SCc2c(F)cc(F)cc2F)n1-c1cnc(O)cn1 [Example 69]
< 4.00

Identify measured pIC50 corresponding to Cc1cc(Cl)ccc1CSc1nc2ncsc2c(=O)n1-c1cnc(O)nc1 [Example 54]
< 4.00
